All values here come from patent US20230272055A1.

Biological target: T1, human mutCALR on BaF3 cells stably expressing human MPL and human mutCALR (MPL-mutCALR cells) (human)
T1 construct: also called mutant calreticulin
T1 chain: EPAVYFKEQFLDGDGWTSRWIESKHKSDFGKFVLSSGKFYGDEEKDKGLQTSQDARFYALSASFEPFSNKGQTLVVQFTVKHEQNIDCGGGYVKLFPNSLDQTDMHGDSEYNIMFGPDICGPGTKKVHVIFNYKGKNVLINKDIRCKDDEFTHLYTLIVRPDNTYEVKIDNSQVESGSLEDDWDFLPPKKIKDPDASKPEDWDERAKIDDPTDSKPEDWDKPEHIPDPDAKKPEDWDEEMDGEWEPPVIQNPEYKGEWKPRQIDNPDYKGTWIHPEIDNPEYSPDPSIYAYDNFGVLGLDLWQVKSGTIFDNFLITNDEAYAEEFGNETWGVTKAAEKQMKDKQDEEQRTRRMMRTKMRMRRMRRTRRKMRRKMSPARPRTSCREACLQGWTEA
Experiment: flow cytometry, BaF3 MPL-mutCALR cells
Exercise: for every item that follows, state its recorded EC50.
// note: answer is a bare numeric in ng/mL

Please give the documented EC50 of anti-mutCALR antibody clone 81 (antibody, human IgG1, lambda, N297A, V domains shown) VH: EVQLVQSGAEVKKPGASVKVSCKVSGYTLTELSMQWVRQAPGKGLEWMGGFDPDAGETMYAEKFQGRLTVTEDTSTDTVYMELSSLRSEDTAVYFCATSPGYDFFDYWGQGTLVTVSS VL: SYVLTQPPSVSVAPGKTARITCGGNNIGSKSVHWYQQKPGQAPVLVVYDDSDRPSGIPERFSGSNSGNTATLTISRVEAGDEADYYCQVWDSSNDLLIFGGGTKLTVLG
8.2

Please give the documented EC50 of anti-mutCALR antibody clone 137 (antibody, human IgG1, lambda, N297A, V domains shown) VH: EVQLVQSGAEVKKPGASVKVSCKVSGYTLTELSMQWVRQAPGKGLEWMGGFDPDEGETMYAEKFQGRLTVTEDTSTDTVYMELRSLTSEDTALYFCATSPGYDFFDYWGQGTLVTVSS VL: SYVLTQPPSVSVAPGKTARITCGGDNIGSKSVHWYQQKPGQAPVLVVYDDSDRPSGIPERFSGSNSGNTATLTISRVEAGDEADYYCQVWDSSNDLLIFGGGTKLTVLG
1.7
